Origin of measurements: patent EP0183129A1

test-method-notes: Absorption and distribution: concentration in blood and organs after oral administration, bioassay by cup method
Type: in vivo
condition-description: rat; rats, fasted, 10 mg/kg oral, kidney, 4 hr after administration; Mean ± S.D. (n=5); read-out: Concentration in organs: Kidney
Where a name gives a salt, the structure may show the parent alone.
Known concentration at 4 h of a selection of compounds
metric-name: concentration at 4 h (ng/g)

| compound | test-value |
| --- | --- |
| CCNCC1CCN(c2c(F)cc3c(=O)c(C(=O)O)cn(C4CC4)c3c2Cl)C1 (centres unmarked) [Example 13] | 1470 |
| CCNCC1CCN(c2c(F)cc3c(=O)c(C(=O)O)cn(C4CC4)c3c2F)C1 (centres unmarked) [Example 2, hydrochloride] | 2620 |
